Would you kindly list pIC50 for each of these compounds?
- System: Aβ-40
- experiment-summary: MSD Human (6E10) Ab 3-PLEX elisa, conditioned media of 2B7 cells: Aβ-40
- Type: cell-based
- run-parameters: Homo sapiens, Aβ-40 (superscript b); read-out: 50% reduction value
pIC50: −log10 of the molar value.

[[record]]
compound = "CC(C)[C@@H](OC(=O)N1CCC1)C1C[C@@H](C)[C@H]2C(O1)[C@H](O)[C@@]1(C)C3CC[C@H]4C(C)(C)C(OC(=O)N5CCn6cnnc6C5)CC[C@@]45C[C@@]35CC[C@]21C (some centres unmarked)"
value = "< 5.00"

[[record]]
compound = "CCO[C@@H](C1C[C@@H](C)[C@H]2C(O1)[C@H](O)[C@@]1(C)C3CC[C@H]4C(C)(C)C(OC(N)=O)CC[C@@]45C[C@@]35CC[C@]21C)C(C)(C)O (some centres unmarked)"
value = "5.00 to 6.00"


// each listed compound needs a value for pIC50
1. CNC(=O)O[C@H](C(C)C)C1C[C@@H](C)[C@H]2C(O1)[C@H](O)[C@@]1(C)C3CC[C@H]4C(C)(C)C(OC(=O)NC5CNC5)CC[C@@]45C[C@@]35CC[C@]21C (some centres unmarked)
2. C[C@@H]1CC(COc2ncccn2)OC2C1[C@@]1(C)CC[C@@]34C[C@@]35CC[C@H](O[C@H]3CN(C6COC6)CCO3)C(C)(C)[C@@H]5CCC4[C@]1(C)[C@H]2O (some centres unmarked)
3. CCO[C@@H](C1C[C@@H](C)[C@H]2C(O1)[C@H](O)[C@@]1(C)C3CC[C@H]4C(C)(C)C(OC(=O)NC5CCNC5=O)CC[C@@]45C[C@@]35CC[C@]21C)C(C)(C)O (some centres unmarked) [drawing 1289]

Result string:
["5.00 to 6.00", "5.00 to 6.00", "5.00 to 6.00"]

====

- Tested on: amyloid-beta (1-42) peptide
- experiment-summary: ELISA assay of amyloid-beta (1-42) in conditioned media of 2B7 cells
- Assay type: cell-based
- run-parameters: 5 h, Aβ-42, 2B7 cells, 5 hours; read-out: IC50 range
- Method: Compounds of the present invention, and extracts comprising said compounds, may be assayed as inhibitors of amyloid-beta (1-42) peptide in vitro or in vivo. Such assay methods are described in detail in U.S. Pat. No. 6,649,196, the entirety of which is hereby incorporated herein by reference. […] Final Wash and Readout: • Aspirated wells, wash 5× with 250 μL of PBS-T (2 minutes each wash at 30 RPM); • Added 100 μL TMB for 20 minutes; • Added 100 μL of 1M H3PO4; and • Read at 450 nm. […]
pIC50: −log10 of the molar value.
property: pIC50

Answered examples (8):
[[record]]
compound = "CC(=O)O[C@@H]([C@H]1C[C@@H](C)[C@H]2[C@H](O1)[C@H](O)[C@@]1(C)[C@@H]3CC[C@H]4C(C)(C)[C@@H](O[C@H]5CN(C6CCC6)CCO5)CC[C@@]45C[C@@]35CC[C@]21C)C(C)(C)O"
value = "≥ 6.00"

[[record]]
compound = "CCC(=O)O[C@@H]([C@H]1C[C@@H](C)C2C(O1)[C@H](O)[C@@]1(C)[C@@H]3CC[C@H]4C(C)(C)[C@@H](O)CC[C@@]45C[C@@]35CC[C@]21C)C(C)(C)O (stereo partly drawn) [drawing 908]"
value = "< 5.00"

[[record]]
compound = "CC(=O)O[C@@H]([C@H]1C[C@@H](C)[C@H]2[C@H](O1)[C@H](O)[C@@]1(C)[C@@H]3CC[C@H]4C(C)(C)[C@@H](O[C@H]5CN(CCOCCOCCNC(=O)CCCC[C@@H]6SC[C@@H]7NC(=O)N[C@@H]76)CCO5)CC[C@@]45C[C@@]35CC[C@]21C)C(C)(C)O"
value = "≥ 6.00"

[[record]]
compound = "CC(=O)O[C@@H]([C@H]1C[C@@H](C)[C@H]2[C@H](O1)[C@H](O)[C@@]1(C)[C@@H]3CC[C@H]4C(C)(C)[C@@H](O[C@@H](CN(C)C)OCCN(C)C)CC[C@@]45C[C@@]35CC[C@]21C)C(C)(C)O"
value = "5.00 to 6.00"

[[record]]
compound = "CC(=O)O[C@@H]([C@H]1C[C@@H](C)[C@H]2[C@H](O1)/C(=N/O)[C@H]1C3CCC4C(C)(C)[C@@H](OC5OC[C@@H](O)[C@H](O)[C@H]5O)CC[C@@]45C[C@@]35CC[C@]21C)C(C)(C)O (stereo partly drawn)"
value = "≥ 6.00"

[[record]]
compound = "CC(=O)O[C@@H]([C@H]1C[C@@H](C)[C@H]2[C@H](O1)C1(SCCS1)[C@@]1(C)C3CCC4C(C)(C)[C@@H](O)CC[C@]4(C)C3=CC[C@]21C)C(C)(C)O (stereo partly drawn)"
value = "5.00 to 6.00"

[[record]]
compound = "CC(=O)O[C@@H]([C@H]1C[C@@H](C)C2C(O1)[C@H](O)[C@@]1(C)[C@@H]3CC[C@H]4C(C)(C)[C@@H](O[C@H]5CN(C)CCO5)CC[C@@]45C[C@@]35CC[C@]21C)C(C)(C)O (stereo partly drawn)"
value = "≥ 6.00"

[[record]]
compound = "COCO[C@@H]([C@H]1C[C@@H](C)C2=C(O1)[C@H](O)[C@@]1(C)[C@@H]3CC[C@H]4C(C)(C)[C@@H](O[C@@H]5OC[C@@H](O)[C@H](O)[C@H]5O)CC[C@@]45C[C@@]35CC[C@]21C)C(C)(C)O"
value = "5.00 to 6.00"


Lab note: next compound to report on.
Query string: Provide value of pIC50 for this record tested with amyloid-beta (1-42) peptide: CC(=O)O[C@@H]([C@H]1C[C@@H](C)C2C(O1)[C@H](O)[C@@]1(C)[C@@H]3CC[C@H]4C(C)(C)[C@@H](O[C@@H]5OC[C@@H](O)[C@H](O)[C@H]5O)CC[C@@]45C[C@@]35CC[C@]21C)C(C)(C)O (stereo partly drawn) [drawing 891]
Result string: ≥ 6.00

====

- Test system: Aβ-38
- experiment-summary: MSD Human (6E10) Ab 3-PLEX elisa, conditioned media of 2B7 cells: Aβ-38
- Format: cell-based
- run-parameters: Homo sapiens; Aβ-38 (superscript a); read-out: 50% reduction value
pIC50: −log10 of the molar value.
property: pIC50

Answered examples (3):
[[record]]
compound = "CS[C@@H](C1C[C@@H](C)[C@H]2C(O1)[C@H](O)[C@@]1(C)C3CC[C@H]4C(C)(C)C(O)CC[C@@]45C[C@@]35CC[C@]21C)C(C)(C)O (some centres unmarked)"
value = "> 6.00"

[[record]]
compound = "CC(C)CO[C@@H](C1C[C@@H](C)[C@H]2C(O1)[C@H](O)[C@@]1(C)C3CC[C@H]4C(C)(C)C(O[C@H]5CN(C6COC6)CCO5)CC[C@@]45C[C@@]35CC[C@]21C)C(C)(C)O (some centres unmarked)"
value = "> 6.00"

[[record]]
compound = "CC(=O)O[C@@H](C1C[C@@H](C)C2C(O1)[C@H](O)[C@@]1(C)[C@@H]3CC[C@H]4C(C)(C)C(O)CC[C@@]45C[C@@]35CC[C@]21C)C(C)(C)C (some centres unmarked)"
value = "5.00 to 6.00"


// each listed compound needs a value for pIC50
1. CCS[C@@H](C1C[C@@H](C)C2C(O1)[C@H](O)[C@@]1(C)C3CC[C@H]4C(C)(C)C(O[C@H]5CN(C6COC6)CCO5)CC[C@@]45C[C@@]35CC[C@]21C)C(C)(C)O (some centres unmarked)
2. CCO[C@@H](C1C[C@@H](C)[C@H]2C(O1)[C@H](O)[C@@]1(C)C3CC[C@H]4C(C)(C)C(OC(=O)N5CC[C@@H](C(=O)O)C5)CC[C@@]45C[C@@]35CC[C@]21C)C(C)(C)O (some centres unmarked)
3. CCO[C@@H](C1C[C@@H](C)[C@H]2C(O1)[C@H](O)[C@@]1(C)C3CC[C@H]4C(C)(C)C(O[C@H]5CN([C@@H](C)C(=O)O)CCO5)CC[C@@]45C[C@@]35CC[C@]21C)C(C)(C)O (some centres unmarked)
4. CC(C)CC(=O)O[C@@H](C1C[C@@H](C)[C@H]2C(O1)[C@H](O)[C@@]1(C)[C@@H]3CC[C@H]4C(C)(C)C(O)CC[C@@]45C[C@@]35CC[C@]21C)C(C)(C)O (some centres unmarked)
5. CC(C)[C@@H](OC(=O)N1CCC1)C1C[C@@H](C)[C@H]2C(O1)[C@H](O)[C@@]1(C)C3CC[C@H]4C(C)(C)C(OC(=O)N5CCn6c(nnc6C(F)(F)F)C5)CC[C@@]45C[C@@]35CC[C@]21C (some centres unmarked)

Result string:
5.00 to 6.00
5.00 to 6.00
> 6.00
> 6.00
> 6.00

// each listed compound needs a value for pIC50
1. CCO[C@@H](C1C[C@@H](C)[C@H]2C(O1)[C@H](O)[C@@]1(C)C3CC[C@H]4C(C)(C)C(OC5CN(Cc6ccccc6)CCO5)CC[C@@]45C[C@@]35CC[C@]21C)C(C)(C)O (some centres unmarked) [drawing 1282]
2. CCO[C@H](C(C)C)C1C[C@@H](C)[C@H]2C(O1)[C@H](O)[C@@]1(C)[C@@H]3CC[C@H]4C(C)(C)C(O)CC[C@@]45C[C@@]35CC[C@]21C (some centres unmarked)
3. C[C@@H]1CC([C@H](OC(=O)C2CCOCC2)C(C)(C)O)OC2[C@H]1[C@@]1(C)CC[C@@]34C[C@@]35CC[C@H](O)C(C)(C)[C@@H]5CCC4[C@]1(C)[C@H]2O (some centres unmarked)
4. CC(=O)O[C@H](C(C)C)C1C[C@@H](C)[C@H]2C(O1)[C@H](O)[C@@]1(C)C3CC[C@H]4C(C)(C)[C@@H](O[C@H]5CN(C(=O)C(C)C)CCO5)CC[C@@]45C[C@@]35CC[C@]21C (some centres unmarked)
5. CCO[C@@H]([C@H]1C[C@@H](C)[C@H]2[C@H](O1)[C@H](O)[C@@]1(C)[C@@H]3CC[C@H]4C(C)(C)[C@@H](OC(=O)NC5CN(C)C5)CC[C@@]45C[C@@]35CC[C@]21C)C(C)(C)O
6. CC(C)C(=O)N1CCO[C@@H](O[C@H]2CC[C@]34C[C@]35CC[C@]3(C)C6C(OC(CN(C)C(=O)N(C)C)C[C@H]6C)[C@H](O)[C@@]3(C)C5CC[C@H]4C2(C)C)C1 (some centres unmarked)
7. C[C@@H]1CC([C@H]([S+](C)[O-])C(C)(C)O)OC2[C@H]1[C@@]1(C)CC[C@@]34C[C@@]35CCC(O)C(C)(C)[C@@H]5CCC4[C@]1(C)[C@H]2O (some centres unmarked)

Result string:
["5.00 to 6.00", "5.00 to 6.00", "5.00 to 6.00", "> 6.00", "> 6.00", "> 5.00", "5.00 to 6.00"]
